Data provenance: the RNAGym collection of RNA variant scans (doi:10.7554/elife.80360)

B1: HDV Ribozyme (parent)
chain: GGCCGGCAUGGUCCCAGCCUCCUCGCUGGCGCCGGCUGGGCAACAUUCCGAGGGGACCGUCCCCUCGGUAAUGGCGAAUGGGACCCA

variants of: B1; experiment: self-cleavage, relative activity (ratio to wild type); higher = more cleavage; co-transcriptional
Our labelling divides records by self-cleavage into ranges: low class (below 0.2), middle class (0.2 to below 0.7), high class (0.7 or more)

Solved cases (3 shown):
- U12C G68A: middle class
- U12G G54C: high class
- G34C C49A: middle class

Let us examine a further case.
Q: Class label required: C32G C75A
A: low class
